Each recorded value in this set is attributed to paper PMC12476453.

Biological target: TAAR348 (Petromyzon marinus, UniProt A0A678XLR1)
Construct: TAAR-like GPCR overexpressed in HEK293 cells with Gs BRET2 sensors; cryo-EM complex with Gs (Gαs, Gβ, Gγ), NB35 and ScFv16; construct details only in supplement
Sequence (A0A678XLR1 1-348): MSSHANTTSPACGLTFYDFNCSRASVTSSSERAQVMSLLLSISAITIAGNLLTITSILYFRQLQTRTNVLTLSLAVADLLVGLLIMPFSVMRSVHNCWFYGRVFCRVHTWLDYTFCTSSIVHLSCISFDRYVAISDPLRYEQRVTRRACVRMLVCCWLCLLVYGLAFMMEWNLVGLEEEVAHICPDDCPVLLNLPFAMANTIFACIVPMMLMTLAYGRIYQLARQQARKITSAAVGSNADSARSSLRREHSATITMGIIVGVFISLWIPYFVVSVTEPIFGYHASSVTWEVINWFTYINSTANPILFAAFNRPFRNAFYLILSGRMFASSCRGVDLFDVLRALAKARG
Assay: BRET2 G protein trimer dissociation assay (Gs)
Value Type: EC50 (nM)
One number for each entry, in nM.

EC50 reported for this compound "NCCCNCCCCNCCCN" : 155
